These entries and their values trace back to patent US12514931B2.

assay: DTX concentration in tissues from explanted organs (LC-MS/MS); type: in vivo, NSG mice; conditions: NSG, mouse, intravenous, 10 mg/kg; Kidney, day 35 post-administration
Measurement kind: concentration at 35 day (nM)
The figure you give is taken to be in nM; do not add the unit.

Entry `CC(=O)O[C@@]12CO[C@@H]1C[C@H](O)[C@@]1(C)C(=O)[C@H](O)C3=C(C)[C@@H](OC(=O)[C@H](O)[C@@H](NC(=O)OC(C)(C)C)c4ccccc4)C[C@@](O)([C@@H](OC(=O)c4ccccc4)[C@H]21)C3(C)C` — recorded concentration at 35 day = 1.17

====

experiment: DTX concentration in tissues from explanted organs (LC-MS/MS); type: in vivo, NSG mice; settings: NSG, mouse, intravenous, 10 mg/kg; Liver, day 35 post-administration
Measurement kind: concentration at 35 day (nM)
Give the value in nM but do not write nM after it.

# concentration at 35 day of `CC(=O)O[C@@]12CO[C@@H]1C[C@H](O)[C@@]1(C)C(=O)[C@H](O)C3=C(C)[C@@H](OC(=O)[C@H](O)[C@@H](NC(=O)OC(C)(C)C)c4ccccc4)C[C@@](O)([C@@H](OC(=O)c4ccccc4)[C@H]21)C3(C)C` = 0

====

test: DTX concentration in tissues from explanted organs (LC-MS/MS); assay type: in vivo, NSG mice; details: NSG, mouse, intravenous, 10 mg/kg; Kidney, day 10 post-administration
Measurement kind: concentration at 10 day (nM)
A number alone suffices; assume nM.

concentration at 10 day recorded for this compound, `CC(=O)O[C@@]12CO[C@@H]1C[C@H](O)[C@@]1(C)C(=O)[C@H](O)C3=C(C)[C@@H](OC(=O)[C@H](O)[C@@H](NC(=O)OC(C)(C)C)c4ccccc4)C[C@@](O)([C@@H](OC(=O)c4ccccc4)[C@H]21)C3(C)C` , is 115

====

assay: DTX concentration in tissues from explanted organs (LC-MS/MS); format: in vivo, NSG mice; details: NSG, mouse, intravenous, 10 mg/kg; Spleen, day 35 post-administration
Measurement kind: concentration at 35 day

// concentration at 35 day lookup, compound = CC(=O)O[C@@]12CO[C@@H]1C[C@H](O)[C@@]1(C)C(=O)[C@H](O)C3=C(C)[C@@H](OC(=O)[C@H](O)[C@@H](NC(=O)OC(C)(C)C)c4ccccc4)C[C@@](O)([C@@H](OC(=O)c4ccccc4)[C@H]21)C3(C)C [docetaxel, Docetaxel] , result: 0 nM

====

assay: DTX concentration in tissues from explanted organs (LC-MS/MS); assay type: in vivo, NSG mice; settings: NSG, mouse, intravenous, 10 mg/kg; Spleen, day 10 post-administration
Measurement kind: concentration at 10 day (nM)
Reply with just the number (in nM).

What the record says about `CC(=O)O[C@@]12CO[C@@H]1C[C@H](O)[C@@]1(C)C(=O)[C@H](O)C3=C(C)[C@@H](OC(=O)[C@H](O)[C@@H](NC(=O)OC(C)(C)C)c4ccccc4)C[C@@](O)([C@@H](OC(=O)c4ccccc4)[C@H]21)C3(C)C` : concentration at 10 day is 35.3

====

test: DTX concentration in tissues from explanted organs (LC-MS/MS); type: in vivo, NSG mice; conditions: NSG, mouse, intravenous, 10 mg/kg; Liver, day 1 post-administration
Measurement kind: concentration at 1 day (nM)
Write the number in nM without appending the unit.

Record `CC(=O)O[C@@]12CO[C@@H]1C[C@H](O)[C@@]1(C)C(=O)[C@H](O)C3=C(C)[C@@H](OC(=O)[C@H](O)[C@@H](NC(=O)OC(C)(C)C)c4ccccc4)C[C@@](O)([C@@H](OC(=O)c4ccccc4)[C@H]21)C3(C)C` , field concentration at 1 day: 87.3

====

assay: DTX concentration in tissues from explanted organs (LC-MS/MS); assay type: in vivo, NSG mice; settings: NSG, mouse, intravenous, 10 mg/kg; Lung, day 1 post-administration
Measurement kind: concentration at 1 day
Field note: include the unit after the figure.

Record summary for CC(=O)O[C@@]12CO[C@@H]1C[C@H](O)[C@@]1(C)C(=O)[C@H](O)C3=C(C)[C@@H](OC(=O)[C@H](O)[C@@H](NC(=O)OC(C)(C)C)c4ccccc4)C[C@@](O)([C@@H](OC(=O)c4ccccc4)[C@H]21)C3(C)C [docetaxel, Docetaxel] : reported concentration at 1 day = 641 nM
